These data points were gathered from patent US20190161551A1.

Assignment: determine reported antibody Binding (nm) for the given binders.
molecular target: T1, mouse TrkB.hFc (mouse); assay: BLI Octet, captured mTrkB.hFc saturated with BDNF, 300 nM mAb
T1 construct: also called mTrkB.hFc; mTrkB-hFc
T1 sequence (chain, as listed by the source limits assumed): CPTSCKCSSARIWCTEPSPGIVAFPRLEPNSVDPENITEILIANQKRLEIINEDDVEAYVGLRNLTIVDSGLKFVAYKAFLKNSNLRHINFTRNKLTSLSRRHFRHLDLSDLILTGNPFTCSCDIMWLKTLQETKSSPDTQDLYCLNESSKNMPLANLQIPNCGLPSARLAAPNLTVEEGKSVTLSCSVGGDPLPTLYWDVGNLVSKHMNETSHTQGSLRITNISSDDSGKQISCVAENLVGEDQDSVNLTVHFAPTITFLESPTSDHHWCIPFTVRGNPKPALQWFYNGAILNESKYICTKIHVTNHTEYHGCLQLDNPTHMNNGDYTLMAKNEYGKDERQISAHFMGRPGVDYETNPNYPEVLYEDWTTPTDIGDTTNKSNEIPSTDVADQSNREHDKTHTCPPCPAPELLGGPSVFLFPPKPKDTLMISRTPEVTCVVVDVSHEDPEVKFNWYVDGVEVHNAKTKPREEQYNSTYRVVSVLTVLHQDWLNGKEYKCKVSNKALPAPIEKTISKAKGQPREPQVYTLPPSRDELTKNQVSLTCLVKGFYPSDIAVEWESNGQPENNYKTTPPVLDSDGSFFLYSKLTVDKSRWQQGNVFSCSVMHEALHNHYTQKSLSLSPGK

Query :: What measured antibody Binding (nm) goes with H1M8037C (antibody, mouse IgG1, kappa, V domains shown, captured by anti-mFc in SPR; also called Comparator; comparator anti-TrkB monoclonal antibody) VH: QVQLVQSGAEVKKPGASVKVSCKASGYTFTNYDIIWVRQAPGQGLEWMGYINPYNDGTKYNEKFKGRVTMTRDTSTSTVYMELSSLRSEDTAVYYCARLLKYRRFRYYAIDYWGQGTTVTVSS VL: DIQMTQSPSSLSASVGDRVTITCRTSENVYSNLAWYQQKPGKAPKLLIYAASNLQSGVPSRFSGSGSGTDYTFTISSLQPEDIATYYCQHFWGSPFTFGQGTKLEIKR ?
Result :: 0.06 nm

Query :: What measured antibody Binding (nm) goes with M2aM14173N (antibody, mouse IgG2a, kappa, V domains shown, Anti-mouse TrkB antibody from hybridoma, mouse IgG2a Fc; also called surrogate anti-mouse TrkB antibody) VH: NVSLVESGGGSVKPGGSLQLSCAASGFTFSSSAMSWIRQTPEMRLEWVATISDRGSYTYYPDSVEGRFTISRDNAKNILYLQMSHLMSEDTAMYYCARGKGEKAYYTAFFAYWGQGSLVTVSA VL: DIQMTQSPASLSASVGETVTITCRASENIYSYLAWYQQKPGKSPHLLVHNAETLAEGVPSRFSGSGSGPQFSLKINSLQPGDSGTYYCQHHYSSPWTFGGGTKLEIKR ?
Result :: 0.38 nm

Query :: What measured antibody Binding (nm) goes with M2aM14178N (antibody, mouse IgG2a, V domains shown, Anti-mouse TrkB antibody from hybridoma, mouse IgG2a Fc; also called surrogate anti-mouse TrkB antibody) VH: EVQLVESGGGLVKPGGSLKLSCTASGFTFSSYAMSWVRQTPEKRLEWVANISDGGTYTYYPDNIKGRFTISRDNAKNNLYLQMSHLESEDTAMYYCIRGDVYYVRFAYWGQGTLVTVSA VL: QAVVTQESALTTSPGETVTLTCRSSTGAVTSSNHANWVQEKPDHLFTGLIGGTNNRAPGVPARFSGSLIGDKAALTITGAQTEDEAIYFCALWHSNHWVFGGGTKLTVLG ?
Result :: 0.35 nm
